B1: LINE1-full (parent)
chain: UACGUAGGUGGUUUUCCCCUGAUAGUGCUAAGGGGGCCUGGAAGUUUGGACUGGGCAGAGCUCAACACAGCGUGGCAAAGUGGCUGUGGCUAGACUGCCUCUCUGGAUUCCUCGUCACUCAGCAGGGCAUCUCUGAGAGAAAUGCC

# Variants of: B1
# Procedure details: self-cleavage, relative activity (ratio to wild type); higher = more cleavage; in vitro, sequencing; the parent is a self-cleaving ribozyme
# self-cleavage >= 0.3 gives TRUE, anything below gives FALSE

mutant_name="U39A U143C" group_label=TRUE
mutant_name="G55C A65G" group_label=FALSE
mutant_name="U20C U39A" group_label=TRUE
mutant_name="U62A A138U" group_label=FALSE
mutant_name="A94G A140G" group_label=FALSE
mutant_name="U87C C103A" group_label=FALSE
mutant_name="U12G G34U" group_label=TRUE
mutant_name="G97A A140U" group_label=FALSE
mutant_name="A6G A117U" group_label=TRUE
mutant_name="U9C U108C" group_label=TRUE
mutant_name="U45G U81A" group_label=TRUE
